Recorded MIC by entry
System: Staphylococcus aureus
ASSAY DETAILS: Antibacterial activity against Staphylococcus aureus assessed as growth inhibition after 7 days by microtiter plate assay
Type: functional
TEST PARAMETERS: 168 h

As a guide, the following entries are already answered.
MOLECULE	TESTED ON	MIC
C[C@H]1[C@@H](OC(=O)CCC(=O)NC2CCN(c3c(F)cc4c(=O)c(C(=O)O)cn(C5CC5)c4c3Cl)C2)O[C@@H]2O[C@@]3(C)CC[C@H]4[C@H](C)CC[C@@H]1[C@@]24OO3 (stereo partly specified)	Staphylococcus aureus	8 µg/mL
C[C@H]1[C@@H](OCCN2CCN(c3cc4c(cc3F)c(=O)c(C(=O)O)cn4C3CC3)CC2)O[C@@H]2O[C@@]3(C)CC[C@H]4[C@H](C)CC[C@@H]1[C@@]24OO3	Staphylococcus aureus	8 µg/mL
C[C@H]1[C@@H](OCCN2CCN(c3cc4c(cc3F)c(=O)c(C(=O)O)cn4-c3ccc(F)cc3)CC2)O[C@@H]2O[C@@]3(C)CC[C@H]4[C@H](C)CC[C@@H]1[C@@]24OO3	Staphylococcus aureus	16 µg/mL

### Prompt Entry C[C@H]1[C@@H](OCCNC2CCN(c3c(F)cc4c(=O)c(C(=O)O)cn(C5CC5)c4c3Cl)C2)O[C@@H]2O[C@@]3(C)CC[C@H]4[C@H](C)CC[C@@H]1[C@@]24OO3 (stereo partly specified) has what MIC?
### Response 16 µg/mL

* * *

Listed molecules paired with reported MIC
Test system: Staphylococcus aureus
ASSAY DETAILS: Antibacterial activity against Staphylococcus aureus assessed as growth inhibition after 7 days by microtiter plate assay
Format: functional
TEST PARAMETERS: 168 h
Please respond with the number in µg/mL and leave the unit unwritten.

MOLECULE	UNIT ABBREVIATION	MIC
C[C@H]1[C@@H](O)O[C@@H]2O[C@@]3(C)CC[C@H]4[C@H](C)CC[C@@H]1[C@@]24OO3	µg/mL	16
C[C@H]1[C@@H](OCCCNC2CCN(c3c(F)cc4c(=O)c(C(=O)O)cn(C5CC5)c4c3Cl)C2)O[C@@H]2O[C@@]3(C)CC[C@H]4[C@H](C)CC[C@@H]1[C@@]24OO3 (some centres not stated)	µg/mL	16
NC1CCN(c2c(F)cc3c(=O)c(C(=O)O)cn(C4CC4)c3c2Cl)C1 (configuration not stated)	µg/mL	2
C[C@H]1[C@@H](OC(=O)CCC(=O)N2CCN(c3cc4c(cc3F)c(=O)c(C(=O)O)cn4C3CC3)CC2)O[C@@H]2O[C@@]3(C)CC[C@H]4[C@H](C)CC[C@@H]1[C@@]24OO3	µg/mL	16
C[C@H]1[C@@H](OCCCN2CCN(c3cc4c(cc3F)c(=O)c(C(=O)O)cn4C3CC3)CC2)O[C@@H]2O[C@@]3(C)CC[C@H]4[C@H](C)CC[C@@H]1[C@@]24OO3	µg/mL	8

### Prompt # get_value(readout='MIC', item= "CCn1cc(C(=O)O)c(=O)c2cc(F)c(N3CCN(CCCO[C@H]4O[C@@H]5O[C@@]6(C)CC[C@H]7[C@H](C)CC[C@@H]([C@H]4C)[C@@]57OO6)CC3)cc21" )
### Response 8

### Prompt Request the reported MIC associated with "CCn1cc(C(=O)O)c(=O)c2cc(F)c(N3CCN(C(=O)CCC(=O)O[C@H]4O[C@@H]5O[C@@]6(C)CC[C@H]7[C@H](C)CC[C@@H]([C@H]4C)[C@@]57OO6)CC3)cc21"
### Response 16
